- assay-target: A*0203 (Homo sapiens, UniProt P04439, A173T/D140Y/D185E/D98H/E277Q/G131W/G231S/I119V/I121R/I166T/I218V/L180W/L300P/L318F/N151K/N90K/P208A/P217A/Q86G/Q94H/R138H/R169H/T345S)
- assay-comment: biochemical
- Format: binding
No end group written: not given here.
recorded-metric: pIC50
The quantity pIC50 is defined as the negative base-10 logarithm of the molar concentration.

Return reported pIC50. Input sequence: SLYTHLQCL [Peptide 1578.20]
7.96

Return reported pIC50. Input sequence: CQAHNSDTGV [Peptide 9013.0190]
6.33

Return reported pIC50. Input sequence: SLQELFIPNI [Peptide 9013.0182]
7.46

Return reported pIC50. Input sequence: ILYPNASLL [Peptide 9013.0030]
8.38

Return reported pIC50. Input sequence: KLLEKLLCI [Peptide 1578.15]
7.82

Return reported pIC50. Input sequence: SLQDSQFEL [Peptide 1578.35]
6.78

Return reported pIC50. Input sequence: GLSLPVSPRL [Peptide 9013.0220]
5.41

Return reported pIC50. Input sequence: TQVLFIAKV [Peptide 9013.0105]
7.57

Return reported pIC50. Input sequence: FLGALKSFL [Peptide 1578.11]
8.68

Return reported pIC50. Input sequence: TLGIMIGVL [Peptide 9013.0108]
5.77

Return reported pIC50. Input sequence: LQGAIISFV [Peptide 1578.28]
7.96

Return reported pIC50. Input sequence: IIYPNASLLV [Peptide 9013.0144]
8.33

Return reported pIC50. Input sequence: LIQPYSIYA [Peptide 86.0202]
5.68

Return reported pIC50. Input sequence: VQWAFDNEL [Peptide 86.0182]
6.35

Return reported pIC50. Input sequence: TLDATYLWWV [Peptide 9013.0158]
6.33

Return reported pIC50. Input sequence: RLENAILFTV [Peptide 1593.60]
6.80

Return reported pIC50. Input sequence: FIQGAVISFV [Peptide 1578.12]
7.74

Return reported pIC50. Input sequence: VIKSDLVNEEV [Peptide 9013.0278]
5.76

Return reported pIC50. Input sequence: FLQGSVICFV [Peptide 1578.05]
8.04

Return reported pIC50. Input sequence: ALYWYKTGI [Peptide 86.0176]
7.28

Return reported pIC50. Input sequence: QQIEFITFL [Peptide 1578.10]
7.70

Return reported pIC50. Input sequence: KVTIESTPFNV [Peptide 9013.0265]
7.40

Return reported pIC50. Input sequence: GLSAGATVGV [Peptide 9013.0250]
8.55

Return reported pIC50. Input sequence: RQIIGYVIGV [Peptide 9013.0139]
7.70

Return reported pIC50. Input sequence: VLAEAMAAA [Peptide 1516.12]
8.49

Return reported pIC50. Input sequence: IIQNDTGFYV [Peptide 9013.0146]
6.26

Return reported pIC50. Input sequence: YVSGANLNL [Peptide 9013.0100]
7.12

Return reported pIC50. Input sequence: FLVAFKQFL [Peptide 1578.42]
8.33
